Biological target: PDE 3B (recombinant, EC 3.1.4.17) (Homo sapiens)
Sequence (Q13370 whole entry, species assumed): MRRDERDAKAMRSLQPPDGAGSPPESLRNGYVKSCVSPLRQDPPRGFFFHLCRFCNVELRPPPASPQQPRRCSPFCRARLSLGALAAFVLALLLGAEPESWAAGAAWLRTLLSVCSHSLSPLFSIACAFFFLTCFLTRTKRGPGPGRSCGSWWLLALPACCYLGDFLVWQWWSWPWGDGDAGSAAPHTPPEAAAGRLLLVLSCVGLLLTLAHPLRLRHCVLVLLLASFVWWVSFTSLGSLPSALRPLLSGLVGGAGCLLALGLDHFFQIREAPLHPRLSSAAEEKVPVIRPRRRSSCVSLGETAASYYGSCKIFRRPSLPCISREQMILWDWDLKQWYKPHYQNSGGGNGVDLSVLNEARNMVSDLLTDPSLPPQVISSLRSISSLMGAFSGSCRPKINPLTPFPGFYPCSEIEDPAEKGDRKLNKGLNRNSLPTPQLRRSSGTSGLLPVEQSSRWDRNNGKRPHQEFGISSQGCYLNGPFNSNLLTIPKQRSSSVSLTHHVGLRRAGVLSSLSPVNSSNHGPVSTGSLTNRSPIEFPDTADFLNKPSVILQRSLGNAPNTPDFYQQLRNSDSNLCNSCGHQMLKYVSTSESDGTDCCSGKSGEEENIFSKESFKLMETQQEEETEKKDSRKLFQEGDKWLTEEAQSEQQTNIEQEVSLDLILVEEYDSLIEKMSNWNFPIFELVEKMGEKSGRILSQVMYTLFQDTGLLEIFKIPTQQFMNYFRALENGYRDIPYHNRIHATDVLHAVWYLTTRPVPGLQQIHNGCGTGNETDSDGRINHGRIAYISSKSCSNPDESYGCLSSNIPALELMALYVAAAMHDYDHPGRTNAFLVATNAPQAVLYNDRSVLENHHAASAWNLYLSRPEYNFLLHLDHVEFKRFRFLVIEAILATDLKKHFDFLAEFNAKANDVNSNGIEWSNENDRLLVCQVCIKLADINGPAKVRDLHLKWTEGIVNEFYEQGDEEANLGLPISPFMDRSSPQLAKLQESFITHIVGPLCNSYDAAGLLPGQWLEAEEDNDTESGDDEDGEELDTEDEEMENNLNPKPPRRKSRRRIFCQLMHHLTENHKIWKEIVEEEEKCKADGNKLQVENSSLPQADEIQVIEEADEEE
Assay: cAMP-specific PDE activity assay (cell-free, radiochemical)
Settings: mean ± SD, n = 3–4; read-out: IC50 of cyanidin and anthocyanins
quantity name: IC50 (µM)
Report only the number, with the unit µM understood.

Inquiry: Which value of IC50 has been reported for COc1cc(-c2[o+]c3cc(O)cc(O)c3cc2O[C@@H]2O[C@H](CO)[C@@H](O)[C@H](O)[C@H]2O)cc(O)c1O.[Cl-] [petunidin-3-glucoside, petunidin-3-glucoside chloride] in the records?
Reply text: 448

Inquiry: Which value of IC50 has been reported for Oc1cc(O)c2cc(O)c(-c3ccc(O)c(O)c3)[o+]c2c1 [cyanidin, cyanidin chloride] in the records?
Reply text: 105

Inquiry: Which value of IC50 has been reported for OC[C@H]1O[C@@H](Oc2cc3c(O)cc(O)cc3[o+]c2-c2ccc(O)c(O)c2)[C@H](O)[C@@H](O)[C@@H]1O.[Cl-] [cyanidin-3-glucoside, cyanidin-3-glucoside chloride] in the records?
Reply text: 299

Inquiry: Which value of IC50 has been reported for Oc1cc(O)c2cc(O[C@@H]3OC[C@H](O)[C@H](O)[C@H]3O)c(-c3ccc(O)c(O)c3)[o+]c2c1.[Cl-] [cyanidin-3-arabinoside, cyanidin-3-arabinoside chloride] in the records?
Reply text: 257

Inquiry: Which value of IC50 has been reported for COc1cc(-c2[o+]c3cc(O)cc(O)c3cc2O[C@@H]2O[C@H](CO)[C@@H](O)[C@H](O)[C@H]2O)ccc1O.[Cl-] [peonidin-3-glucoside, Peonidin-3-glucoside chloride] in the records?
Reply text: 120
